# Test system: biotinyl-Met-oxazolone
# assay_method_text: self-aminoacylation, catalytic enhancement (BMO) (fold over background); higher = more active; k-Seq, kA / k0A0; sequences stand for … in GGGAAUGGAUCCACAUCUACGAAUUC…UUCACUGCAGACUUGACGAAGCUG
Fewer inactive variants are shown than the library holds.
Criterion: self-aminoacylation meeting or surpassing 3. Met: Met. Not met: Not met.

Is self-aminoacylation at least 3? Consider AACUUUACUAAUAGUCGCAAG [Fam3.1 aminoacylation ribozyme variant] Not met

Is self-aminoacylation at least 3? Consider UUUACCGUGGUCAUCGAGUGA [Fam2.1 aminoacylation ribozyme variant] Met

Is self-aminoacylation at least 3? Consider CUAAUUCAAAGAAUCGGUCUG [Fam1A.1 aminoacylation ribozyme variant] Not met

Is self-aminoacylation at least 3? Consider AUUACCCUGGUCAUCGAGGAA [Fam2.1 aminoacylation ribozyme variant] Met

Is self-aminoacylation at least 3? Consider AUUCACCUACGACAUCGGGUG [Fam2.2 aminoacylation ribozyme variant] Met

Is self-aminoacylation at least 3? Consider AUUCACUUAGUUCAUCGGGUG [Fam2.2 aminoacylation ribozyme variant] Not met

Is self-aminoacylation at least 3? Consider CUACUUAAAACAAUCGGUCUU [Fam1A.1 aminoacylation ribozyme variant] Not met

Is self-aminoacylation at least 3? Consider AUUUAGCUAGGUCAUCGGGUG [Fam2.2 aminoacylation ribozyme variant] Met

Is self-aminoacylation at least 3? Consider ACUUACCUAGGUCAUCGGGUG [Fam2.2 aminoacylation ribozyme variant] Met

Is self-aminoacylation at least 3? Consider AUUCACCUAGGUAAGCGGGUG [Fam2.2 aminoacylation ribozyme variant] Not met

Is self-aminoacylation at least 3? Consider AAGUUUGCUAAUAGUAACAAG [Fam3.1 aminoacylation ribozyme variant] Not met

Is self-aminoacylation at least 3? Consider AUUCGCCUAGGUCAUCGGGUU [Fam2.2 aminoacylation ribozyme variant] Met

Is self-aminoacylation at least 3? Consider GUUCACCUAGGUCACCGGGUG [Fam2.2 aminoacylation ribozyme variant] Met

Is self-aminoacylation at least 3? Consider AAGUUUGCUAAUGGUCGCCAG [Fam3.1 aminoacylation ribozyme variant] Not met

Is self-aminoacylation at least 3? Consider CUACUUAAAACAAUCGGUUUG [Fam1A.1 aminoacylation ribozyme variant] Not met

Is self-aminoacylation at least 3? Consider CCACACUUCAAUCAAUGGGUC [Fam1B.1 aminoacylation ribozyme variant] Not met

Is self-aminoacylation at least 3? Consider CCAGAGUUCAAGCAAUCGGUC [Fam1B.1 aminoacylation ribozyme variant] Not met

Is self-aminoacylation at least 3? Consider CCACACUUCAGGCAAUCGGUA [Fam1B.1 aminoacylation ribozyme variant] Not met

Is self-aminoacylation at least 3? Consider AAGUUUGCUGAUUGUCGCAAG [Fam3.1 aminoacylation ribozyme variant] Not met

Is self-aminoacylation at least 3? Consider CCACACUUGAAGCGAUCGGUC [Fam1B.1 aminoacylation ribozyme variant] Not met

Is self-aminoacylation at least 3? Consider AAGUUUGCUAACCGUCGCAAG [Fam3.1 aminoacylation ribozyme variant] Not met

Is self-aminoacylation at least 3? Consider CUACCUCAAACAAUAGGUCUG [Fam1A.1 aminoacylation ribozyme variant] Not met

Is self-aminoacylation at least 3? Consider AUUUACUUAGGUCAUCGGGUG [Fam2.2 aminoacylation ribozyme variant] Met

Is self-aminoacylation at least 3? Consider CUACUUCAAUCAAUCAGUCUG [Fam1A.1 aminoacylation ribozyme variant] Not met

Is self-aminoacylation at least 3? Consider CCACAAUUCAAGCAUUCGGUC [Fam1B.1 aminoacylation ribozyme variant] Not met

Is self-aminoacylation at least 3? Consider GUUCACCUAGGUCAACGGGUG [Fam2.2 aminoacylation ribozyme variant] Not met

Is self-aminoacylation at least 3? Consider AAGUUCGCUAAUAGUCGCAAC [Fam3.1 aminoacylation ribozyme variant] Not met

Is self-aminoacylation at least 3? Consider AUUCCCCUGGUCAUCGCGUGA [Fam2.1 aminoacylation ribozyme variant] Met

Is self-aminoacylation at least 3? Consider CUACUUCAAACAUUUGGUCUG [Fam1A.1 aminoacylation ribozyme variant] Not met

Is self-aminoacylation at least 3? Consider CUACUUCAAACCAUCGGUGUG [Fam1A.1 aminoacylation ribozyme variant] Not met

Is self-aminoacylation at least 3? Consider UCACACUUCAAGCACUCGGUC [Fam1B.1 aminoacylation ribozyme variant] Not met

Is self-aminoacylation at least 3? Consider CCACACUUCAAGUAAUGGGUC [Fam1B.1 aminoacylation ribozyme variant] Not met

Is self-aminoacylation at least 3? Consider AGCACCCUGGUCAUCGAGUGA [Fam2.1 aminoacylation ribozyme variant] Met

Is self-aminoacylation at least 3? Consider AUUACCCUGGGCAUCGGGUGA [Fam2.1 aminoacylation ribozyme variant] Met

Is self-aminoacylation at least 3? Consider CUCCUACAAACAAUCGGUCUG [Fam1A.1 aminoacylation ribozyme variant] Not met
